system: MM2MT; test: cells; details: Mus musculus, 336 h, read-out: ED50, MM2MT-TK cells; GCV 14 days
measured-parameter: pEC50
The meaning of pEC50 here: minus log10 of the concentration in molar units.

Problem: Name the recorded pEC50 for Nc1nc(O)c2ncn(COC(CO)CO)c2n1 .
Solution: 7.02
